Tested on: Peripheral blood mononuclear cells (PBMC)
Experiment: Cytokine Induction in Human Cells (in vitro human blood cell system, IFN and TNF secreted into culture media)
Format: cell-based
Details: Homo sapiens, PBMC, lowest concentration found to induce tumor necrosis factor (α), 18 to 24 hours, ELISA or IGEN assay, tested 30-0.014 μM, read-out: Lowest Effective Concentration (μM) Tumor Necrosis Factor
Each entry below carries its reported minimal effective concentration.
# unit: µM | format: bare number

Examples with their reported minimal effective concentration follow.
COCCc1nc2c(N)nc3ccccc3c2n1CCOCCCc1ccccc1 [Example 121]; 0.04
CCC(COc1ccc(C(C)(C)CC(C)(C)C)cc1)n1cnc2c(N)nc3ccccc3c21 (stereo not drawn) [Example 103]; 10

# input for lookup
(Q) I'd like to know its minimal effective concentration. The compound in question is Cc1nc2c(N)nc3ccccc3c2n1CCOCC#Cc1ccccc1 [Example 118]
(A) 0.04
